FYI, the data here is from ChEMBL document CHEMBL3352577.

biological target: Bcl-2-like protein 1 (Homo sapiens, UniProt Q07817); assay: Reversible inhibition of human recombinant N-terminal His-tagged Bcl-xL (1 to 209) expressed in Escherichia coli BL21(DE3) after 30 to 120 mins by TR-FRET assay in presence of F-bid
Sequence (Q07817 whole entry): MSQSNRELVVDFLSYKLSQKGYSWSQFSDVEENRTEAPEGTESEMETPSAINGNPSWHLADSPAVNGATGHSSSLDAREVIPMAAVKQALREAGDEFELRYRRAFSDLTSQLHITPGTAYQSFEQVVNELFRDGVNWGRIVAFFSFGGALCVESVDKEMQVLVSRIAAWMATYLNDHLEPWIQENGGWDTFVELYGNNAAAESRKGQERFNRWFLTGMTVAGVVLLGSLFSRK

[
  {
    "compound": "O=C(CC(Sc1ccc(Cl)cc1)C(=O)O)c1ccc(C2CCCCC2)cc1 (configuration not stated)",
    "system-tested": "Bcl-2-like protein 1 (Homo sapiens, UniProt Q07817)",
    "Ki / µM": 13
  },
  {
    "compound": "O=C(CC(Cc1ccc(Cl)cc1)C(=O)O)c1ccc(C2CCCCC2)cc1 (configuration not stated)",
    "system-tested": "Bcl-2-like protein 1 (Homo sapiens, UniProt Q07817)",
    "Ki / µM": 9
  }
]
